I'd appreciate it if you could supply log10 of IC50 values for the items below.
target: CDK7/cyclin H (Homo sapiens, UniProt P50613); assay: CDK 7 assay (CTD peptide substrate); assay type: biochemical; settings: read-out: Kinase Inhibition pIC50 CDK7-cyclin H (converted)
Sequence (P50613 whole entry): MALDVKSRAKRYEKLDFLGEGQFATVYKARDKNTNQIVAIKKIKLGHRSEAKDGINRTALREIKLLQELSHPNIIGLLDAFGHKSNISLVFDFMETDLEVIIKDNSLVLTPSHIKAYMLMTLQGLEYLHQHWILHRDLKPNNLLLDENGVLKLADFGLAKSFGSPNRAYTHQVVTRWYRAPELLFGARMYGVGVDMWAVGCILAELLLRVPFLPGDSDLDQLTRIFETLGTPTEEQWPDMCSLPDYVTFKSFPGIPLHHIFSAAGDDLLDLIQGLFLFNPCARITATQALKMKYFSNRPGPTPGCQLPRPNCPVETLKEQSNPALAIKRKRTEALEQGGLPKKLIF
Sequence (P51946 whole entry partner): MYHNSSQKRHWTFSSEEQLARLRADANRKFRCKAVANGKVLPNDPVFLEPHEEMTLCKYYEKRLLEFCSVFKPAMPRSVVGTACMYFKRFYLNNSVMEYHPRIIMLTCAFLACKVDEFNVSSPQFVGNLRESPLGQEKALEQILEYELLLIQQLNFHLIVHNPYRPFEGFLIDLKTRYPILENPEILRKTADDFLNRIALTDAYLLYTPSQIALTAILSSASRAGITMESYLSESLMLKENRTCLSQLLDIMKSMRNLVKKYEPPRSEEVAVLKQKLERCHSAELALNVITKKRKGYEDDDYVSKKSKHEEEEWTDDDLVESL
A difference of one corresponds to tenfold IC50; all values are log10 with IC50 in µM.

Cc1ccc(Nc2nccc(-c3sc(N)nc3C)n2)cc1S(=O)(=O)N1CCOCC1 has a reported log10 of IC50 of -0.20

CCNc1nc(C)c(-c2ccnc(Nc3cccc(S(N)(=O)=O)c3)n2)s1 has a reported log10 of IC50 of -0.90

Cc1nc(N)sc1-c1ccnc(Nc2cccc(S(=O)(=O)NCCO)c2)n1 has a reported log10 of IC50 of -0.40

COCCNS(=O)(=O)c1ccc(Nc2nccc(-c3sc(N)nc3C)n2)cc1 has a reported log10 of IC50 of 0.50

CNc1nc(C)c(-c2ccnc(Nc3cccc(S(C)(=O)=O)c3)n2)s1 has a reported log10 of IC50 of -0.70

Cc1cc(Nc2nccc(-c3sc(CO)nc3C)n2)ccc1N1CCOCC1 has a reported log10 of IC50 of 0.90

Cc1nc(C)c(-c2ccnc(Nc3cccc(S(=O)(=O)NCCO)c3)n2)s1 has a reported log10 of IC50 of 0.10

CC(=O)N1CCN(c2ccc(Nc3nccc(-c4sc(N(C)c5cccnc5)nc4C)n3)cc2)CC1 has a reported log10 of IC50 of 0.60

CCNS(=O)(=O)c1cccc(Nc2nccc(-c3sc(N)nc3C)n2)c1 has a reported log10 of IC50 of -0.40

CC(=O)NCc1ccc(Nc2nccc(-c3sc(N)nc3C)n2)cc1 has a reported log10 of IC50 of 0.30

CC(=O)NCc1ccc(Nc2nccc(-c3sc(-c4cccnc4)nc3C)n2)cc1 has a reported log10 of IC50 of 0.40

CCNc1nc(C)c(-c2ccnc(Nc3cccc(S(=O)(=O)NC(C)(C)CO)c3)n2)s1 has a reported log10 of IC50 of 0.20

CCNc1nc(C)c(-c2ccnc(Nc3cccc(S(=O)(=O)NC)c3)n2)s1 has a reported log10 of IC50 of -1.00

CC(=O)N1CCN(c2ccc(Nc3nccc(-c4sc(NCCc5ccccc5)nc4C)n3)cc2)CC1 has a reported log10 of IC50 of 0.40

Cc1nc(C)c(-c2ccnc(Nc3cccc(N4CCNCC4)c3)n2)s1 has a reported log10 of IC50 of 0.30

CCNc1nc(C)c(-c2ccnc(Nc3ccc(N4CCNCC4)cc3)n2)s1 has a reported log10 of IC50 of -0.90

CCNc1nc(C)c(-c2ccnc(Nc3ccc(S(=O)(=O)NCCO)cc3)n2)s1 has a reported log10 of IC50 of -0.70

CCNc1nc(C)c(-c2ccnc(Nc3cccc(CC(=O)OCCOC)c3)n2)s1 has a reported log10 of IC50 of 0.60

Cc1nc(N)sc1-c1ccnc(Nc2ccc(S(=O)(=O)NCCO)cc2)n1 has a reported log10 of IC50 of 0.30

CCNc1nc(C)c(-c2ccnc(Nc3cccc(CNS(=O)(=O)C(F)(F)F)c3)n2)s1 has a reported log10 of IC50 of 0.80

CNc1nc(C)c(-c2ccnc(Nc3ccc(C)c(Br)c3)n2)s1 has a reported log10 of IC50 of 0.80

COCCNc1nc(C)c(-c2ccnc(Nc3cccc(S(N)(=O)=O)c3)n2)s1 has a reported log10 of IC50 of -1.30

CNS(=O)(=O)c1cccc(Nc2nccc(-c3sc(N)nc3C)n2)c1 has a reported log10 of IC50 of -0.10

Cc1nc(C)c(-c2ccnc(Nc3cccc(CNC(=O)c4ccccc4)c3)n2)s1 has a reported log10 of IC50 of 0.70

CCNc1nc(C)c(-c2ccnc(Nc3cccc(CNS(C)(=O)=O)c3)n2)s1 has a reported log10 of IC50 of -0.60

COCCNS(=O)(=O)c1cccc(Nc2nccc(-c3sc(N)nc3C)n2)c1 has a reported log10 of IC50 of -0.20

CC(=O)NCc1ccc(Nc2nccc(-c3sc(C)nc3C)n2)cc1 has a reported log10 of IC50 of 0.20

CNc1nc(C)c(-c2ccnc(Nc3cc(OC)c(OC)c(OC)c3)n2)s1 has a reported log10 of IC50 of -0.10

CC(=O)N1CCN(c2ccc(Nc3nccc(-c4sc(N)nc4C)n3)cc2)CC1 has a reported log10 of IC50 of 1.20

CC(=O)N1CCN(c2ccc(Nc3nccc(-c4sc(N(C)Cc5ccccc5)nc4C)n3)cc2)CC1 has a reported log10 of IC50 of 0.20

COc1cc(Nc2nccc(-c3sc(CO)nc3C)n2)ccc1N1CCCCC1 has a reported log10 of IC50 of 0.20

CNc1nc(C)c(-c2ccnc(Nc3cccc(S(=O)(=O)NC(C)=O)c3)n2)s1 has a reported log10 of IC50 of 0.40

CNc1nc(C)c(-c2ccnc(Nc3ccc(CNC(C)=O)cc3)n2)s1 has a reported log10 of IC50 of -0.10

Cc1ccc(Nc2nccc(-c3sc(NC(C)(C)C)nc3C)n2)cc1[N+](=O)[O-] has a reported log10 of IC50 of -0.10

Cc1nc(C)c(-c2ccnc(Nc3ccc(CN4CCOCC4)cc3)n2)s1 has a reported log10 of IC50 of -0.60

Every entry's value here was drawn from patent US20090137572A1.
